target_or_system: ORL-1 receptor (Homo sapiens)
Sequence (P41146 whole entry): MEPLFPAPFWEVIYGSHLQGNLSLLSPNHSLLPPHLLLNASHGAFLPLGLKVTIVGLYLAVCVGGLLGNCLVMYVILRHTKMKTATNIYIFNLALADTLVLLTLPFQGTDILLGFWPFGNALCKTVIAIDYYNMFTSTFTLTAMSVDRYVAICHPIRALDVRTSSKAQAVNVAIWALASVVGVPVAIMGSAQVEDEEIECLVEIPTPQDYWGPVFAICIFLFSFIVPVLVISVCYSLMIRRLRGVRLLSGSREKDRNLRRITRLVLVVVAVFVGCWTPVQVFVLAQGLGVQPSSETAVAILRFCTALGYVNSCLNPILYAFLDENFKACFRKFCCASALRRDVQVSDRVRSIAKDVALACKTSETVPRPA
test_summary: ORL-1 receptor [35S]GTPγS functional assay
pEC50: −log10 of the molar value.
quantity_measured: pEC50

// query pEC50 value for entry CCOC(=O)Cc1nc(C2(c3ccccc3)CCN(CCC(C(=O)N(C)C)(c3ccccc3)c3ccccc3)CC2)no1 [AFL]
< 4.70

----------
target_or_system: μ opioid receptor (Homo sapiens, UniProt P35372)
Sequence (P35372 whole entry): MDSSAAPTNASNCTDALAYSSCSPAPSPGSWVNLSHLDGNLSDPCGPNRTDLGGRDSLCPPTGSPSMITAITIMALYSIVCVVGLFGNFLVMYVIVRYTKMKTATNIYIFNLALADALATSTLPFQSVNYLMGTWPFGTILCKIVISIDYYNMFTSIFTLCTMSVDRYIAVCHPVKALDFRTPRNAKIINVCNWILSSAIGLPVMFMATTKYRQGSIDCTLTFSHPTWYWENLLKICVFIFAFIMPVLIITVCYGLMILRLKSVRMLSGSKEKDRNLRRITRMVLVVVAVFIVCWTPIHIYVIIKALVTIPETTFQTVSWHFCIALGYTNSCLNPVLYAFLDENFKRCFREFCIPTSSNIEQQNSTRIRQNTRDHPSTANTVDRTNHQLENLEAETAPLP
test_summary: μ-receptor [35S]GTPγS functional assay
Type: biochemical
particulars: read-out: μ GTP EC50
quantity_measured: EC50 (nM)
Hi! Could you send only the number? It should be in nM, unit omitted.

// query EC50 value for entry CCOC(=O)Cc1nc(C2(c3ccccc3)CCN(CCC(C(=O)N3CCCC3)(c3ccccc3)c3ccccc3)CC2)no1 [AGE]
2.03

----------
target_or_system: μ opioid receptor (Homo sapiens, UniProt P35372)
test_summary: μ-receptor [35S]GTPγS functional assay
Format: biochemical
particulars: maximal effect relative to DAMGO; read-out: μ GTP Emax
quantity_measured: Emax

Some solved entries appear below for comparison.
| compound | Emax |
| --- | --- |
| CCOC(=O)Cc1nc(C2(c3ccccc3)CCN(CCC(C(=O)N(C)C)(c3ccccc3)c3ccccc3)CC2)no1 [AFL] | 117% |
| CCOC(=O)Cc1nc(C2(c3ccccc3)CCN(CCC(C(=O)N3CCCC3)(c3ccccc3)c3ccccc3)CC2)no1 [AGE] | 103% |
| CN(C)C(=O)C(CCN1CCC(c2ccccc2)(c2noc(CC(N)=O)n2)CC1)(c1ccccc1)c1ccccc1 [AFE] | 116% |

Please examine the following record next.
Item: NC(=O)Cc1nc(C2(c3ccccc3)CCN(CCC(C(=O)N3CCCC3)(c3ccccc3)c3ccccc3)CC2)no1 [AFX] Test system: μ opioid receptor (Homo sapiens, UniProt P35372) Read-out: Emax Value: ?
90%

----------
target_or_system: kappa opioid receptor (Homo sapiens, UniProt P41145)
Construct: expressed in transfected cells; host or cells: HEK-293
Sequence (P41145 whole entry): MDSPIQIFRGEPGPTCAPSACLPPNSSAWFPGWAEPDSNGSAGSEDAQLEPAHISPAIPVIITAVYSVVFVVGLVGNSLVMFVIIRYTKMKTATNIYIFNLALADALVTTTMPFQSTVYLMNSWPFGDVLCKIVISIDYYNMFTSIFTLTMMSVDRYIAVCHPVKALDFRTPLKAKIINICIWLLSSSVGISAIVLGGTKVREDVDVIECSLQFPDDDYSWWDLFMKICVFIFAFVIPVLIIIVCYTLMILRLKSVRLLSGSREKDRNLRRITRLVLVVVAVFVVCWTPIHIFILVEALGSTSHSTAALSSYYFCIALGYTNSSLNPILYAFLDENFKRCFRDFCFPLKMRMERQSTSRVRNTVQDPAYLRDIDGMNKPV
test_summary: κ opioid receptor functional [35S]GTPγS binding assay
Assay type: biochemical
particulars: read-out: κ GTP EC50
quantity_measured: EC50 (nM)
Hi! Could you send only the number? It should be in nM, unit omitted.

Item: CCOC(=O)Cc1nc(C2(c3ccccc3)CCN(CCC(C(=O)N3CCCC3)(c3ccccc3)c3ccccc3)CC2)no1 Test system: kappa opioid receptor (Homo sapiens, UniProt P41145) Read-out: EC50 Value: ?
704

----------
target_or_system: μ opioid receptor (Homo sapiens, UniProt P35372)
test_summary: μ-receptor [35S]GTPγS functional assay
Assay type: biochemical
Recorded pEC50 by entry
On this scale, pEC50 is minus log10 of a concentration expressed in M (mol/L).

| compound | pEC50 |
| --- | --- |
| NC(=O)Cc1nc(C2(c3ccccc3)CCN(CCC(C(=O)N3CCCC3)(c3ccccc3)c3ccccc3)CC2)no1 [AFX] | 8.09 |
| CN(C)C(=O)C(CCN1CCC(c2ccccc2)(c2noc(CC(N)=O)n2)CC1)(c1ccccc1)c1ccccc1 [AFE] | 7.79 |

Please examine the following record next.
// query pEC50 value for entry CCOC(=O)Cc1nc(C2(c3ccccc3)CCN(CCC(C(=O)N(C)C)(c3ccccc3)c3ccccc3)CC2)no1 [AFL]
8.98

----------
target_or_system: human opioid receptor-like (ORL-1) receptor (Homo sapiens)
Recorded pKi by entry
On this scale, pKi is minus log10 of a concentration expressed in M (mol/L).

Some solved entries appear below for comparison.
| molecule | pKi |
| --- | --- |
| CCOC(=O)Cc1nc(C2(c3ccccc3)CCN(CCC(C(=O)N(C)C)(c3ccccc3)c3ccccc3)CC2)no1 [AFL] | 6.16 |
| CN(C)C(=O)C(CCN1CCC(c2ccccc2)(c2noc(CC(N)=O)n2)CC1)(c1ccccc1)c1ccccc1 [AFE] | 5.74 |
| CCOC(=O)Cc1nc(C2(c3ccccc3)CCN(CCC(C(=O)N3CCCC3)(c3ccccc3)c3ccccc3)CC2)no1 [AGE] | 5.41 |

Please examine the following record next.
// query pKi value for entry NC(=O)Cc1nc(C2(c3ccccc3)CCN(CCC(C(=O)N3CCCC3)(c3ccccc3)c3ccccc3)CC2)no1 [AFX]
5.89

----------
target_or_system: kappa opioid receptor (Homo sapiens, UniProt P41145)
Construct: expressed in transfected cells; host or cells: HEK-293
test_summary: κ opioid receptor binding assay ([3H]-U69,593)
quantity_measured: pKi
On this scale, pKi is minus log10 of a concentration expressed in M (mol/L).

Some solved entries appear below for comparison.
| item_smiles | quantity_measured | result |
| --- | --- | --- |
| NC(=O)Cc1nc(C2(c3ccccc3)CCN(CCC(C(=O)N3CCCC3)(c3ccccc3)c3ccccc3)CC2)no1 | pKi | 6.44 |
| CCOC(=O)Cc1nc(C2(c3ccccc3)CCN(CCC(C(=O)N(C)C)(c3ccccc3)c3ccccc3)CC2)no1 | pKi | 7.48 |

// query pKi value for entry CN(C)C(=O)C(CCN1CCC(c2ccccc2)(c2noc(CC(N)=O)n2)CC1)(c1ccccc1)c1ccccc1
6.82

----------
target_or_system: UniProt:P35372
test_summary: μ-opioid receptor radioligand dose-displacement binding assay ([3H]-diprenorphine)
particulars: μ Ki
Recorded Ki by entry
Hi! Could you send only the number? It should be in nM, unit omitted.

Some solved entries appear below for comparison.
| item_smiles | output_unit | Ki |
| --- | --- | --- |
| CCOC(=O)Cc1nc(C2(c3ccccc3)CCN(CCC(C(=O)N(C)C)(c3ccccc3)c3ccccc3)CC2)no1 | nM | 1.11 |
| CN(C)C(=O)C(CCN1CCC(c2ccccc2)(c2noc(CC(N)=O)n2)CC1)(c1ccccc1)c1ccccc1 | nM | 5.92 |

// query Ki value for entry NC(=O)Cc1nc(C2(c3ccccc3)CCN(CCC(C(=O)N3CCCC3)(c3ccccc3)c3ccccc3)CC2)no1
4.82

----------
Recorded Emax by entry
target_or_system: kappa opioid receptor (Homo sapiens, UniProt P41145)
Construct: expressed in transfected cells; host or cells: HEK-293
test_summary: κ opioid receptor functional [35S]GTPγS binding assay
Assay type: biochemical
particulars: maximal effect relative to U69,593; read-out: κ GTP Emax
Hi! Could you send only the number? It should be in %, unit omitted.

Some solved entries appear below for comparison.
| item_smiles | quantity_measured | result |
| --- | --- | --- |
| CN(C)C(=O)C(CCN1CCC(c2ccccc2)(c2noc(CC(N)=O)n2)CC1)(c1ccccc1)c1ccccc1 | Emax | 44.7 |
| NC(=O)Cc1nc(C2(c3ccccc3)CCN(CCC(C(=O)N3CCCC3)(c3ccccc3)c3ccccc3)CC2)no1 | Emax | 41.7 |
| CCOC(=O)Cc1nc(C2(c3ccccc3)CCN(CCC(C(=O)N(C)C)(c3ccccc3)c3ccccc3)CC2)no1 | Emax | 52.7 |

Please examine the following record next.
// query Emax value for entry CCOC(=O)Cc1nc(C2(c3ccccc3)CCN(CCC(C(=O)N3CCCC3)(c3ccccc3)c3ccccc3)CC2)no1
56

----------
target_or_system: kappa opioid receptor (Homo sapiens, UniProt P41145)
Construct: expressed in transfected cells; host or cells: HEK-293
test_summary: κ opioid receptor functional [35S]GTPγS binding assay
Assay type: biochemical
Recorded pEC50 by entry
On this scale, pEC50 is minus log10 of a concentration expressed in M (mol/L).

Some solved entries appear below for comparison.
| item_smiles | quantity_measured | result |
| --- | --- | --- |
| NC(=O)Cc1nc(C2(c3ccccc3)CCN(CCC(C(=O)N3CCCC3)(c3ccccc3)c3ccccc3)CC2)no1 | pEC50 | 5.42 |
| CCOC(=O)Cc1nc(C2(c3ccccc3)CCN(CCC(C(=O)N(C)C)(c3ccccc3)c3ccccc3)CC2)no1 | pEC50 | 5.77 |

// query pEC50 value for entry CN(C)C(=O)C(CCN1CCC(c2ccccc2)(c2noc(CC(N)=O)n2)CC1)(c1ccccc1)c1ccccc1
5.90

----------
target_or_system: kappa opioid receptor (Homo sapiens)
Construct: expressed in transfected cells; host or cells: HEK-293
test_summary: κ opioid receptor binding assay ([3H]-U69,593)
particulars: read-out: κ Ki
quantity_measured: Ki (nM)
Hi! Could you send only the number? It should be in nM, unit omitted.

// query Ki value for entry CCOC(=O)Cc1nc(C2(c3ccccc3)CCN(CCC(C(=O)N3CCCC3)(c3ccccc3)c3ccccc3)CC2)no1 [AGE]
91.9

----------
target_or_system: delta opioid receptor (Homo sapiens, UniProt P41143)
Construct: purchased Perkin Elmer; host or cells: CHO-K1
Sequence (P41143 whole entry): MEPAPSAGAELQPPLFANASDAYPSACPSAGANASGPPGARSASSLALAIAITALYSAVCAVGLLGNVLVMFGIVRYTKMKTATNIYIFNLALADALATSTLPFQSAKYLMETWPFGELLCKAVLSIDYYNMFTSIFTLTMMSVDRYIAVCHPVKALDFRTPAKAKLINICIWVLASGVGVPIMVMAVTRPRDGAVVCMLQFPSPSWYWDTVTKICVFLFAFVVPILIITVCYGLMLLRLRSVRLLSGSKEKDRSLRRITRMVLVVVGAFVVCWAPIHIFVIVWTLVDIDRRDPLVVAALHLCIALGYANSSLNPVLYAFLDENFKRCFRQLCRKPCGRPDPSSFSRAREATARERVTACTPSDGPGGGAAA
test_summary: δ opioid receptor functional [35S]GTPγS binding assay
Type: biochemical
quantity_measured: EC50

// query EC50 value for entry CCOC(=O)Cc1nc(C2(c3ccccc3)CCN(CCC(C(=O)N(C)C)(c3ccccc3)c3ccccc3)CC2)no1
84 nM

----------
Recorded pKi by entry
target_or_system: μ opioid receptor (Homo sapiens, UniProt P35372)
test_summary: μ-opioid receptor radioligand dose-displacement binding assay ([3H]-diprenorphine)
particulars: Ki for binding to μ-opioid receptors
On this scale, pKi is minus log10 of a concentration expressed in M (mol/L).

| item_smiles | target_or_system | pKi |
| --- | --- | --- |
| NC(=O)Cc1nc(C2(c3ccccc3)CCN(CCC(C(=O)N3CCCC3)(c3ccccc3)c3ccccc3)CC2)no1 | μ opioid receptor (Homo sapiens, UniProt P35372) | 8.32 |
| CN(C)C(=O)C(CCN1CCC(c2ccccc2)(c2noc(CC(N)=O)n2)CC1)(c1ccccc1)c1ccccc1 | μ opioid receptor (Homo sapiens, UniProt P35372) | 8.23 |

Please examine the following record next.
Item: CCOC(=O)Cc1nc(C2(c3ccccc3)CCN(CCC(C(=O)N(C)C)(c3ccccc3)c3ccccc3)CC2)no1 Test system: μ opioid receptor (Homo sapiens, UniProt P35372) Read-out: pKi Value: ?
8.96

Ref: patent US20080319020A1
